tested on: Lethal factor (Bacillus anthracis, UniProt P15917)
Sequence (P15917 whole entry): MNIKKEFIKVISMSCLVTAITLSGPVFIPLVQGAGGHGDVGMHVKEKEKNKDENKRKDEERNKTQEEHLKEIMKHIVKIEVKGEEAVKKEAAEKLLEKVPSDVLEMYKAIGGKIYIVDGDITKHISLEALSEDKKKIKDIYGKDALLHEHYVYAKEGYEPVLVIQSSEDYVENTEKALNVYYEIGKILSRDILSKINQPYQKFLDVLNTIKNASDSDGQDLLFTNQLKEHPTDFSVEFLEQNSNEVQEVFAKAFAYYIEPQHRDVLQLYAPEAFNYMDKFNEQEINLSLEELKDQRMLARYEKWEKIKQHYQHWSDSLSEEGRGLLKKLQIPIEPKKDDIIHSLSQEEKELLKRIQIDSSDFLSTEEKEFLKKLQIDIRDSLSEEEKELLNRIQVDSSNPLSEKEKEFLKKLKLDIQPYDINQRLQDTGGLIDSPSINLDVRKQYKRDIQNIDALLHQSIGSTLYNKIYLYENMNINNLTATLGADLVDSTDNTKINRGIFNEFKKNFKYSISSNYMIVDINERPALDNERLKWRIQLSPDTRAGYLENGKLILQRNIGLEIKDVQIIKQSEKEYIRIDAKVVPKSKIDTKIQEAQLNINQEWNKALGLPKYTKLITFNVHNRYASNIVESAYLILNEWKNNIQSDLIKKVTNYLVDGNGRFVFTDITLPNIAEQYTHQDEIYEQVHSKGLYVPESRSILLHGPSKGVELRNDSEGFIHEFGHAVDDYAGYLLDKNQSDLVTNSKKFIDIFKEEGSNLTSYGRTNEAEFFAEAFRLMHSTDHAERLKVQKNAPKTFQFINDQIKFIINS
measurement label: IC50 (µM)
Please state the figure in µM; there is no need to write the unit.

Query string: Item under review: O=S(=O)(Nc1sccc1-c1nc2ccccc2s1)c1ccc2c(c1)CCO2 . Reported IC50?
Result string: 22

Query string: Field request: IC50 | item: O=S(=O)(Nc1sccc1-c1nc2ccccc2s1)c1ccc(-c2ccno2)s1
Result string: 19

Query string: Need IC50, item Cc1cc(S(=O)(=O)Nc2scc(C)c2-c2nc3ccccc3s2)ccc1F
Result string: 17

Query string: Look up IC50 for this molecule: O=S(=O)(Nc1sccc1-c1nc2ccccc2s1)c1ccc(Cl)c(Cl)c1
Result string: 9

Query string: Can you look up the measured IC50 of Cc1csc(NS(=O)(=O)c2ccc(Cl)c(C(F)(F)F)c2)c1-c1nc2ccccc2s1 for me?
Result string: 11

Query string: // lookup IC50 for O=S(=O)(Nc1sccc1-c1nc2ccccc2s1)c1ccc2ccccc2c1
Result string: 8

Query string: IC50 lookup needed for N#C/C(=C\c1ccc([N+](=O)[O-])s1)C(=O)c1ccco1 , thanks.
Result string: 19
